# EC50 listing for each entry below
Tested on: U251 GBM cells
method.summary: Annexin V/PI cell viability assay in U251 cells
Type: cell-based
condition.label: 48-hour incubation, read-out: EC50 (μM) of ATF-5-Derived Polypeptides in Cancer Cells, U251
Ends that are not written are not given here.
readout.label: EC50 (µM)

INSERT INTO results (seq_string, comparator, value_measured) VALUES
  ('RQIKIWFQNRRMKWKKLEQRAEELARENEELLEKEAEELEQENAELEGECQGLEARNRELRERAESV [ST-2]', '>', 200),
  ('RQIKIWFQNRRMKWKKLEGECQGLEARNRELKERAESV [ST-3]', '=', 42);
